Attribution: PubChem BioAssay (NCI)

Test system: SW-620 colon
protocol: NCI tumour cell line growth inhibition, 48 h; in the data active = GI50 below about 0.43 µM; inactive = the rest
Tick one outcome: active, inactive

Could you please tell me the result logged for C=CC1CC12C(=O)C1OC2(C)C2C(=O)c3c(O)ccc(O)c3C(=O)C12 (centres undefined) in this assay?
inactive

What do you have for `COc1ccc2c(c1)C(c1ccccc1Cl)=Nc1c(n[nH]c1C)N2` ?
inactive

What do you have for `Cc1ccc(-c2cc(C3=CC(=O)C=CC3=O)n(-c3ccc(S(N)(=O)=O)cc3)n2)cc1` ?
inactive

What do you have for `CCCCCCCCCCCCSC(=N)N` ?
inactive

What do you have for `COc1ccc2c(c1)C(=O)/C(=C/c1ncc([N+](=O)[O-])n1C)O2` ?
active

What do you have for S=C1Nc2ccc(Cl)cc2C2(c3ccccc3)N3CCN=C3NN12 (centres undefined) ?
inactive

What do you have for `C#CC(F)(F)[C@]1(O)CC[C@H]2[C@@H]3CCC4=CC(=O)CCC4=C3[C@@H](c3ccc(C(C)=O)cc3)C[C@@]21C` ?
inactive

What do you have for `O=C(Cc1cccc(OC(F)(F)F)c1)Nc1ccc(CCCCc2nnc(NC(=O)Cc3ccccn3)s2)nn1` ?
inactive

What do you have for `COc1cc(-c2nc3sc4c(c3c(=O)[nH]2)CCCCCC4)cc(OC)c1OC` ?
inactive

What do you have for `CC(=O)O/N=C1/C(c2c(O)[nH]c3cc(Br)ccc23)=Nc2ccccc21` ?
inactive

What do you have for COc1ccc2nc3cc(Cl)ccc3c(NCCCNCCC(C)O)c2c1 (centres undefined) ?
active

What do you have for `COc1ccc(C(=O)c2cc3c(OC)c(OC)c(OC)cc3[nH]2)cc1` ?
inactive

What do you have for Cc1ccc2c(O)c(O)cc(NC(C)CCCN)c2n1 (centres undefined) ?
inactive

What do you have for `Cn1cc(-c2cnc3ccc4ccc(CS(=O)(=O)NCc5ccccn5)cc4c(=O)c3c2)cn1` ?
inactive

---

System: A549 NSCLC
protocol: NCI tumour cell line growth inhibition, 48 h
Provide the recorded TGI for the entries that follow.

Quick check: TGI of `O=C1C(Br)=CC2(C=C1Br)CCNC1=C2C(=O)c2cccnc2C1=O` ?
30.1 µM

What do you have for CC#CC1/C(=C\C(=O)OC)CCCC1O (stereo unspecified) ?
> 100 µM

What do you have for `COc1cccc(N(CN2CC=CC2=O)C(C)=O)c1` ?
> 100 µM

What do you have for `CCOC(=O)/C=C/C(C(=O)/C=C/c1ccc(O)c(OC)c1)=C(O)\C=C\c1ccc(O)c(OC)c1` ?
24.5 µM

What do you have for `N#C[S-].[Nd+3].c1ccc(-c2ccccn2)nc1.c1ccc(-c2ccccn2)nc1.c1ccc(-c2ccccn2)nc1` ?
> 100 µM

What do you have for COc1cc2c(cc1O)CC13CCC(=O)N1CCc1cc(OC)c(O)c-2c13 (stereo unspecified) ?
> 68.1 µM

What do you have for `CN1CCN(Cc2ccc(NC(=O)c3ccc(C#Cc4c(N)ncc5ccc(F)cc45)cc3)cc2C(F)(F)F)CC1` ?
2.19 µM

What do you have for CCCCCCCCCCCCCCCCCCNc1ccn(C2OC(COP(=O)(O)OCC3OC(n4cc(C)c(=O)[nH]c4=O)CC3N=[N+]=[N-])C(O)C2O)c(=O)n1 (stereo unspecified) ?
> 100 µM

What do you have for CO[C@@H]1/C=C(C)/C=C/[C@@H](C)/C=C(\C)C(=O)OC(/C(C)=C/C=C(\C)CNC(=O)[C@H](CO)NC=O)[C@@H](C)/C=C/C=C/[C@H](OC)CC/C=C(C)/C=C/C1 (stereo partly specified) ?
0.0242 µM

What do you have for `[N-]=[N+]=NCc1cccc(Nc2cc(=O)[nH]c(=O)[nH]2)c1` ?
> 100 µM

What do you have for CSC1=C(C#N)C(=O)N(c2ccc(C)cc2)C(=S)C1C#N (stereo unspecified) ?
> 100 µM

What do you have for `COC(=O)/C=C/c1cc(O)c2c(c1)[C@H](C(=O)OC)[C@@H](c1ccc(O)c(O)c1)O2` ?
> 100 µM

What do you have for `CC(=O)O/N=C1/C(c2c(O)[nH]c3cc(Br)ccc23)=Nc2ccccc21` ?
3.47 µM

What do you have for `O=C1c2c(n(Cc3ccccc3)c(=O)n2Cc2ccccc2)C(=O)N1Cc1ccccc1` ?
> 100 µM

What do you have for CC(CO)C1C[C@H](O)[C@@]2(C)CC(=O)C=C(CO)[C@@H]2C1 (stereo partly specified) ?
> 100 µM

What do you have for `CCSC1=C(C)N(C=NC(C)(C)C)CC1` ?
> 100 µM

---

Provide the recorded TGI for the entries that follow.
Tested on: SNB-75 CNS
protocol: NCI tumour cell line growth inhibition, 48 h

Which measured TGI belongs to CC#CC1/C(=C\C(=O)OC)CCCC1O (stereo not given) , tested on SNB-75 CNS?
> 100 µM

What do you have for `c1ccc(-c2nc(-c3ccccc3)c(-c3ccccc3)[nH]2)cc1` ?
> 100 µM

What do you have for `OC1(c2cc3ccccc3s2)CCCCC1` ?
> 100 µM

What do you have for `COc1ccc(-c2ccc(-c3ccc(-c4ccc(C(=N)N)cc4)s3)s2)cc1OC` ?
31 µM

What do you have for `c1ccc2c(c1)CCc1cc3cc4c(nc3nc1-2)-c1ccccc1CC4` ?
> 100 µM

---

Test system: NCI-H226 lung
protocol: NCI tumour cell line growth inhibition, 48 h
Label rule, in plain words: TGI of 40 µM and up is Criterion met, under 40 µM is Criterion not met.

Threshold query (TGI >= 40 µM) on `COc1ccc(/C=C/C(=O)Oc2cc(O)cc(O)c2)cc1`
Criterion met

What do you have for `Cc1cc(Nc2ncnc3ccc(NC4=NC(C)(C)CO4)cc23)ccc1Oc1ccn2ncnc2c1` ?
Criterion met

What do you have for O=C1/C(=C/c2ccccc2[N+](=O)[O-])N=C(c2ccccc2)N1C1Nc2cc3c(cc2S1)NC(N1C(=O)/C(=C/c2ccccc2[N+](=O)[O-])N=C1c1ccccc1)S3 (centres undefined) ?
Criterion met

What do you have for `COC(=O)c1cc(C#N)[nH]c1-c1ccc(C)s1` ?
Criterion met

What do you have for `O=S1(=O)c2ccccc2C(=NO)c2ccccc21` ?
Criterion met

What do you have for COC(OC)C1OC(CO)C(n2ccc(N)nc2=O)C1O (centres undefined) ?
Criterion met

What do you have for `Oc1ccc(SCc2cc(O)c(O)c(O)c2)cc1` ?
Criterion met

What do you have for `Nc1c(C(=O)Nc2ccccc2)[n+]([O-])c2ccccc2[n+]1[O-]` ?
Criterion met

What do you have for `O=C(N/N=C/c1ccc([N+](=O)[O-])cc1)c1ccc2nc(-c3ccc(Cl)cc3)[nH]c2c1` ?
Criterion not met

What do you have for COc1cc2c(cc1O)CC13CCC(=O)N1CCc1cc(OC)c(O)c-2c13 (centres undefined) ?
Criterion met

What do you have for COc1ccc2c(c1)N=C1CSC(c3ccccc3Cl)N1C2 (centres undefined) ?
Criterion met

What do you have for S=C1Nc2ccc(Cl)cc2C2(c3ccccc3)N3CCN=C3NN12 (centres undefined) ?
Criterion met

What do you have for `O=[N+]([O-])c1ccc(N=Nc2c(O)c(S(=O)(=O)O)cc3cc(S(=O)(=O)O)ccc23)cc1` ?
Criterion met

What do you have for `O=C(N/N=C/c1cc(Cl)cc(Cl)c1[O-])c1ccccc1O.O=C(N/N=C/c1cc(Cl)cc(Cl)c1[O-])c1ccccc1O.[Ni+2]` ?
Criterion not met

What do you have for `CSc1c(C#N)c(=O)[nH]c2n[nH]c(C)c12` ?
Criterion met

What do you have for `O=c1[nH]cnc2[nH]ncc12` ?
Criterion met

What do you have for `O=C1C=C(Br)c2c(Br)sc(Br)c21` ?
Criterion met

What do you have for `COC(=O)/C=C(/C(=O)OC)c1c(C)c(C)c2c(C)cc(C)cc(C)c1-2` ?
Criterion met

What do you have for `Cc1cc(NS(=O)(=O)c2ccc(NC(=O)c3cccc4c(Nc5ccc(S(=O)(=O)N=C(N)N)cc5)c5ccccc5nc34)cc2)no1` ?
Criterion met

What do you have for `O=C1Cc2c([nH]c3ccc(Br)cc23)-c2ccccc2N1` ?
Criterion met

What do you have for `Cc1cc(=O)oc2cc(OCc3c(F)cccc3Cl)ccc12` ?
Criterion met

What do you have for CCCCOP1(=O)C=C(C)C(=C(Cl)Cl)C(C)=C1 (centres undefined) ?
Criterion not met

What do you have for `CCN1c2ccccc2C(Cl)(c2ccc(N(C)C)cc2)c2ccccc21` ?
Criterion not met

What do you have for `O=C(c1ccccc1)c1ccc2nc(-c3c(Cl)c(Cl)c(Cl)c(Cl)c3C(=O)N/N=C/c3ccccc3)[nH]c2c1` ?
Criterion met

What do you have for `CCOC(=O)/C=C(\C(=O)OCC)n1ccc(N)nc1=O` ?
Criterion met

What do you have for `CCOC(=O)/C=C(/C(=O)OCC)n1cc(C)c(=O)n(Cc2cn(COCCOC(C)=O)nn2)c1=O` ?
Criterion met

What do you have for `Cc1sc(/N=C/c2c[nH]c3ccccc23)c(C#N)c1C` ?
Criterion met

What do you have for `Cc1ccc(-c2cc(C3=CC(=O)C=CC3=O)n(-c3ccc(S(N)(=O)=O)cc3)n2)cc1` ?
Criterion met

What do you have for O=C1NC2(CCCCC2)C2CCCCCC12 (centres undefined) ?
Criterion met

What do you have for CCOC(=O)C1SC(=Nc2ccc(Cl)c(Cl)c2)N=C1C (centres undefined) ?
Criterion met

What do you have for N#CC1=C(N)NC(=O)NC12Nc1ccccc1S2 (centres undefined) ?
Criterion not met

What do you have for `Cc1cn(CC2=NCC(C)(C)N2)c(=O)[nH]c1=O` ?
Criterion met
